Parameter: TGI. Scope: all listed entries.
- System: NCI-H522 lung
- Assay procedure: NCI tumour cell line growth inhibition, 48 h

Known TGI results, listed for orientation:
{"Molecule": "O=C(Nc1nc2ccccc2s1)c1cc([N+](=O)[O-])ccc1Cl", "Reported value": "11.6 µM"}
{"Molecule": "C[C@@H]1CC[C@H]2C(C(O)CCCCC(O)C3=C(C(F)(F)F)O[C@@H]4O[C@@]5(C)CC[C@H]6[C@H](C)CC[C@@H]3[C@@]46OO5)=C(C(F)(F)F)O[C@@H]3O[C@@]4(C)CC[C@@H]1[C@]32OO4 (some centres undefined)", "Reported value": "> 100 µM"}
{"Molecule": "Nc1nc(Nc2ccc(C3CCC(N4CCOCC4)CC3)cc2)nn1-c1ccccn1 (centres undefined)", "Reported value": "32.7 µM"}

Qu. Need TGI of CS[C@]12C(=O)C[C@@]3(C)[C@@H](CC[C@]3(O)C(=O)CO)[C@@H]1CCC1=CC(=O)CC[C@@]12C , thanks.
Ans. > 100 µM

Qu. Need TGI of C/C(Nc1ccc(F)cc1)=C1/CCOC1=O , thanks.
Ans. > 100 µM

Qu. Need TGI of COc1ccc(NC(C)=O)cc1N1C(=O)/C(=C\c2cc(OC)c(OC)c(OC)c2)SC1c1ccccc1 (centres undefined) , thanks.
Ans. > 100 µM

Qu. Need TGI of Cc1ccc(N2C(=O)C3C=CC(n4[nH]c(=O)n(Cc5ccccc5)c4=O)CC3C2=O)cc1 (centres undefined) , thanks.
Ans. > 100 µM

Qu. Need TGI of CCOC(=O)C(=Cc1cccnc1C)C(=O)OCC , thanks.
Ans. 11.7 µM

Qu. Need TGI of CN1CCN(CCCBr)CC1 , thanks.
Ans. > 100 µM
